recorded-endpoint: melting point

Solved cases (2 shown):
- compound: "NC(=O)Cc1ccc(N/C=C2\\C(=O)Nc3ccccc32)cc1"
  result: "> 250 °C"
- compound: "CC(C)Oc1c(C(=O)Nc2nnn[nH]2)sc2c1CS(=O)CC2 (stereo unspecified)"
  result: "225 to 226 °C"

Data request: What does the record list as melting point for COC(=O)c1cccc2c(Cl)c(OC)ccc12 ?
Data returned: 125 °C

Data request: What does the record list as melting point for CN1CCC(c2c[nH]c3ccc(NC(=O)c4ccc5ccccc5c4)cc23)CC1 ?
Data returned: 153 to 156 °C

Data request: What does the record list as melting point for O=C1OC(=O)c2c1ccc1sc3ccccc3c21 ?
Data returned: 248 to 250 °C

Data request: What does the record list as melting point for OCCCOC(c1ccccc1)(c1ccccc1)c1ccccc1 ?
Data returned: 117 to 118 °C

Data request: What does the record list as melting point for Cc1ccc(CNc2c(NC(C)(C)C)c(=O)c2=O)c(C)c1 ?
Data returned: 228 to 229 °C

Data request: What does the record list as melting point for NC(=O)CCc1cc(-c2ccncc2)sc1-c1ccncc1 ?
Data returned: 196 °C

Data request: What does the record list as melting point for [N-]=[N+]=NCc1cccc(C(=O)c2ccc(Cl)cc2)c1 ?
Data returned: 43 to 45 °C

Data request: What does the record list as melting point for CC(=O)Nc1c(C(=O)c2ccccc2)[nH]c2ccc(Br)cc12 ?
Data returned: 192 to 194 °C

====

recorded-endpoint: melting point

- compound: "O=C(c1ccccc1)N1CC2C(C1)C2Nc1ncc2cc(-c3ccccc3Cl)c(=O)n(-c3ccc(F)cc3)c2n1 (stereo not given)"
  melting point: "242 to 244 °C"
- compound: "[N-]=[N+]=C1C(=O)Oc2ccc(S(=O)(=O)Cl)cc2C1=O"
  melting point: "185 °C"
- compound: "CC(C)C(=O)C(=Cc1ccccc1)C(=O)Nc1ccccc1"
  melting point: "144 to 154 °C"
- compound: "c1ccc(Cc2ccccc2C2CCN(CCCOc3ccccc3)CC2)cc1"
  melting point: "139 to 140 °C"

Data request: What does the record list as melting point for O=C(Nc1ccc(O)cc1)Nc1cc(Cl)ccc1C(=O)O ?
Data returned: 212 to 214 °C

====

recorded-endpoint: melting point (°C)

- compound: "O=C(Nc1cccnc1Cl)c1ccccc1F"
  quantitative-readout: 122

I: COc1ccc2cc([C@H](C)C(=O)OCC(C)(CO)CO)ccc2c1
II: COc1ccc(CCC(=O)c2ccc(O)cc2O)c(OC)c1C
Data request: Which value of melting point is smaller, the one for I or the one for II ? Give the label of your selection.
Data returned: I

====

recorded-endpoint: melting point

Solved cases (4 shown):
- compound: "CCCCN1C(=O)NC(Cc2ccc(C#N)cc2)C1=O (stereo not given)"
  melting point: "136 °C"
- compound: "c1snc2c1Sc1csnc1S2"
  melting point: "190 to 191 °C"
- compound: "CCc1nc2c(C)cc(C)nc2n1Cc1ccc(-c2ccccc2)c(-c2nc(=O)o[nH]2)c1"
  melting point: "149 to 152 °C"
- compound: "CSc1nc(=O)n(-c2ccc(Cl)cc2)c(=O)[nH]1"
  melting point: "292 to 295 °C"

Data request: What does the record list as melting point for COC1CC(C)(C)C(OC(=O)c2ccccc2)C(OC(=O)c2ccccc2)C=C1C (stereo not given) ?
Data returned: 78 to 80 °C

Data request: What does the record list as melting point for COc1cc(C)ccc1S(=O)(=O)NC(=O)C(c1ccc2c(c1)OCO2)c1cn(C)c2ccc(Br)cc12 (stereo not given) ?
Data returned: 145 to 150 °C

Data request: What does the record list as melting point for c1ccc(COc2ccc(OCC3CC3)cc2)cc1 ?
Data returned: 96 °C

Data request: What does the record list as melting point for CC1(C)C(c2ccccc2)=Nc2ccc(C3=NNC(=O)CC3)cc21 ?
Data returned: 200 to 201 °C

Data request: What does the record list as melting point for OCC(O)COc1cc(-c2cccc(Cl)c2)on1 (stereo not given) ?
Data returned: 92 to 93 °C

Data request: What does the record list as melting point for CS(=O)(=O)c1cc(C(=O)O)ccc1Oc1ccc([N+](=O)[O-])cc1 ?
Data returned: 140 to 150 °C

Data request: What does the record list as melting point for CC(=O)Nc1ccc(S(=O)(=O)Nc2cc(C)on2)cc1 ?
Data returned: 220 to 222 °C

====

Residues, ends and D or L forms follow the SMILES beside them. *: point of attachment. Boc = CC(C)(C)OC(=O)*; NHNH2 = NN*
recorded-endpoint: melting point

Solved cases (5 shown):
- compound: "O=c1ccc(-c2c(-c3ccccc3)nn3ccccc23)c[nH]1"
  melting point: "222 to 224 °C"
- compound: "CCCCCCNc1nc(-c2ccc(F)cc2)c(-c2ccc(S(C)(=O)=O)cc2)s1"
  melting point: "161 to 162 °C"
- compound: "CC(c1oc2ccccc2c(=O)c1-c1cccc(F)c1)n1nc(-c2cccc(C(=O)NC3CC3)c2)c2c(N)ncnc21 (centres undefined)"
  melting point: "127 to 132 °C"
- compound: "Cc1c(N(C)C)c(F)cc2c(=O)[nH]c(=O)n(C3CC3)c12"
  melting point: "238 to 239 °C"
- compound: "C=CCc1cc(N2CCN(c3ccncc3)CC2)ccc1OCCCC(=O)OCC"
  melting point: "53 to 55 °C"

Data request: What does the record list as melting point for C=CCCC(=O)Nc1ccccc1 ?
Data returned: 93 to 94 °C

Data request: What does the record list as melting point for CSCCC(NC(=O)C(CCCCNC(=O)OC(C)(C)C)NC(=O)C(Cc1ccc(O)cc1)NC(=O)C1CCCN1)C(=O)NN (centres undefined) (H-PYK(Boc)M-NHNH2; configuration not given here) ?
Data returned: 206 to 207 °C

Data request: What does the record list as melting point for COCc1c(-c2ccncc2)[nH]c(-c2ccncc2)c1C(=O)OC ?
Data returned: 97 to 99 °C

Data request: What does the record list as melting point for Cc1ccsc1-c1ccc(C(C)C(=O)O)cc1 (centres undefined) ?
Data returned: 95 to 96 °C

====

Measured melting point values are reported for all entries that follow.

Solved cases (3 shown):
- compound: "CC(C)(C=O)Cc1cc(C(C)(C)C)c(O)c(C(C)(C)C)c1"
  melting point: "72 to 74 °C"
- compound: "N#Cc1ccc2c(c1)C(C(=O)O)c1ccccc1CO2 (stereo not given)"
  melting point: "215 to 217 °C"
- compound: "CN1CCc2c(cc3ccccc3c2N)C1"
  melting point: "97 to 99 °C"

Let's switch to this compound now.
Data request: What does the record list as melting point for CCCC(=O)Nc1c([N+](=O)[O-])c(C(C)(C)C)nn1-c1c(Cl)cc(C(F)(F)F)cc1Cl ?
Data returned: 152 to 154 °C

====

recorded-endpoint: melting point

- molecule: "CCOC(=O)c1sc(-c2ccc(C#N)cc2)nc1CO"
  melting point: "> 250 °C"

Data request: What does the record list as melting point for CCC(C(=O)C(C)C(O)C(C)CCc1ccc(C)c(O)c1C(=O)O)C1OC(CC)(C2CCC(O)(CC)C(C)O2)CC1C (stereo not given) ?
Data returned: 250 °C

Data request: What does the record list as melting point for CC(O)C(CCCc1ccccc1)n1ncc2c(=O)[nH]c(Cc3ccc(Cl)cc3)nc21 (stereo not given) ?
Data returned: 101 °C

Data request: What does the record list as melting point for C#CC1(O)c2ccccc2COc2ccccc21 (stereo not given) ?
Data returned: 93 to 94 °C

====

Measured melting point values are reported for all entries that follow.

Solved cases (2 shown):
- molecule: "COC(=O)C1=CC(C)(N)NC(C2CC2)=N1 (stereo unspecified)"
  melting point: "152 to 153 °C"
- molecule: "CN1CCNC1=NC(=S)Nc1ccccc1"
  melting point: "205 to 208 °C"

Let's switch to this molecule now.
Data request: What does the record list as melting point for CC(C)(C)OC(=O)NCCc1ccc(OCCC2Oc3ccccc3N(Cc3cccc(Cl)c3)C2=O)cc1 (stereo unspecified) ?
Data returned: 91 to 92 °C

====

Measured melting point values are reported for all entries that follow.

Solved cases (5 shown):
- compound: "C#CCN1C(=O)COc2ccc(N)cc21"
  recorded-endpoint: "melting point"
  result: "136 to 140 °C"
- compound: "N#Cc1cc(C(F)(F)F)cc(C(=O)Nc2ccc(Cl)c(Cl)c2)c1N1CCCCC1"
  recorded-endpoint: "melting point"
  result: "175 °C"
- compound: "COc1ccc(-c2c(C)c(NC(=O)CC(C)(C)C)c(C)c3c2OCC3c2ccc(C(C)C)cc2)cc1 (stereo unspecified)"
  recorded-endpoint: "melting point"
  result: "129 to 131 °C"
- compound: "CCCN1C(=O)N2CC(Cc3ccccc3)N=C2c2[nH]c(C(OC)c3ccccc3)nc21 (stereo unspecified)"
  recorded-endpoint: "melting point"
  result: "160 to 162 °C"
- compound: "COc1ccc(CN[C@@H]2CCCC[C@H]2NCc2ccc(OC)cc2)cc1 (relative stereo)"
  recorded-endpoint: "melting point"
  result: "110 to 112 °C"

Data request: What does the record list as melting point for Cc1cc2ccccc2n1Nc1ccncc1F ?
Data returned: 157 to 158 °C

Data request: What does the record list as melting point for O=C1CC(c2cccc(-n3ccnc3)c2)=Nc2cc(N3CCC(OCCO)CC3)c(-c3ccc(F)cc3)cc2N1 ?
Data returned: 225 to 227 °C
